Assignment: determine reported IC50 for the given molecules.
# Tested On: BRD4 (Homo sapiens)
# Method Notes: Time resolved fluorescence resonance energy transfer (TR-FRET) binding assay, bromodomain BRD4
# Measurement Context: one of the FRET assays described; read-out: FRET BRD4 IC50

Molecule	Tested On	Property Label	Test Value
Cc1cccnc1C(C1CCOCC1)n1c2cc(-c3c(C)nnn3C)ncc2c2ncc(C(C)(C)O)cc21 (single isomer, unassigned) [Example 374]	BRD4 (Homo sapiens)	IC50	< 10 nM
Cc1noc(C)c1-c1cnc2c3cc(C(C)(C)O)cnc3n([C@H](c3ccccc3)C3CCOCC3)c2c1	BRD4 (Homo sapiens)	IC50	< 1500 nM
COc1ncc(S(C)(=O)=O)c2c1c1ncc(-c3c(C)nnn3C)cc1n2C(c1ccccc1)C1CCC(F)(F)CC1 (single isomer, unassigned) [Example 91]	BRD4 (Homo sapiens)	IC50	< 1500 nM
CCCC(c1ccc(F)cn1)n1c2cc(-c3c(C)nnn3C)ncc2c2ncc(C(C)(C)O)cc21 (single isomer, unassigned) [Example 375]	BRD4 (Homo sapiens)	IC50	< 1500 nM
Cc1nnn(C)c1-c1cnc2c3c(F)ncc(Cl)c3n([C@H](c3ccccc3)C3CCOCC3)c2c1	BRD4 (Homo sapiens)	IC50	< 10 nM

Turning to the following molecule.
Fill in the blank: the reported IC50 of `Cc1nnn(C)c1-c1cnc2c3cnc(Cl)cc3n([C@H](c3ccc(Cl)cn3)C3CCOCC3)c2c1` is ____.
< 10 nM

---

Assignment: determine reported IC50 for the given molecules.
# Tested On: BRD4 (Homo sapiens, UniProt O60885)
# Method Notes: Time resolved fluorescence resonance energy transfer (TR-FRET) binding assay, bromodomain BRD4
# Measurement Context: one of the FRET assays described; read-out: FRET BRD4 IC50

// solved cases for IC50 follow
Chemical Smiles	IC50
Cc1cc([C@H](C2CCOCC2)n2c3cc(-c4c(C)nnn4C)ncc3c3ncc(C(C)(C)O)cc32)no1	< 10 nM
[2H]C([2H])([2H])c1nnn(C)c1-c1cnc2c3cnc(C(C)(C)O)cc3n([C@H](c3ccc(F)cc3)C3CCOCC3)c2c1	< 1500 nM

Turning to the following molecule.
Fill in the blank: the reported IC50 of `[2H]C([2H])([2H])c1nnn(C)c1-c1cnc2c3ccc(C4=CCS(=O)(=O)CC4)nc3n([C@H](c3ccccc3)C3CCOCC3)c2c1` is ____.
< 10 nM

---

Assignment: determine reported pIC50 for the given compounds.
# Tested On: BRD4 (Homo sapiens, UniProt O60885)
# Method Notes: Time resolved fluorescence resonance energy transfer (TR-FRET) binding assay, bromodomain BRD4
# Measurement Context: one of the FRET assays described; read-out: FRET BRD4 IC50
pIC50: −log10 of the molar value.

// solved cases for pIC50 follow
Compound	pIC50
[2H]C([2H])([2H])c1nnn(C)c1-c1cnc2c3cc(Cl)cnc3n([C@H](c3ccccc3)C3CCOCC3)c2c1 [Example 347]	> 5.82
Cc1nnn(C)c1-c1cnc2c3cnccc3n([C@H](c3ccccc3)C3CCOCC3)c2c1 [Example 35]	> 8.00
[2H]C([2H])([2H])c1nnn(C)c1-c1cnc2c3ccc(-c4c(C([2H])([2H])[2H])nnn4C)nc3n(C(c3ccccc3)C3CCC(F)(F)CC3)c2c1 (stereo not shown) [Example 261]	> 8.00
CC(=O)c1ccc(-c2ccc3c4ncc(-c5c(C)nnn5C)cc4n([C@H](c4ccccc4)C4CCOCC4)c3n2)s1 [Example 162]	> 8.00
[2H]C([2H])([2H])c1nnn(C)c1-c1cnc2c3c(OCC)ncc(S(C)(=O)=O)c3n([C@H](c3ccccc3F)C3CCOCC3)c2c1 [Example 62]	> 9.00

Go through the list and state pIC50 for each entry.
1. [2H]C([2H])([2H])c1nnn(C)c1-c1cnc2c3ccc(Cl)nc3n(C(c3ncccc3F)C3CCOCC3)c2c1 (stereo not shown) [Example 246]
2. [2H]C([2H])([2H])c1nnn(C)c1-c1cnc2c3ccc(C(C)(C)O)nc3n([C@H](c3ccccc3F)C3CCOCC3)c2c1 [Example 241]
3. COc1ncc(CO)c2c1c1ncc(-c3c(C)nnn3C)cc1n2[C@H](c1ccccc1)C1CCOCC1 [Example 136]
4. Cc1nnn(C)c1-c1cnc2c3ccc(N4CCC(S(C)(=O)=O)CC4)nc3n([C@H](c3ccccc3)C3CCOCC3)c2c1 [Example 192]
5. [2H]C([2H])([2H])c1nnn(C)c1-c1cnc2c3c(OC)ncc(S(C)(=O)=O)c3n(C(c3c(F)cc(F)cc3F)C3CCOCC3)c2c1 (single isomer, unassigned) [Example 83]

> 8.00
> 8.00
> 8.00
> 9.00
> 9.00

Go through the list and state pIC50 for each entry.
1. Cc1nnn(C)c1-c1cnc2c3cc(S(C)(=O)=O)ncc3n([C@H](c3ccccc3F)C3CCOCC3)c2c1 [Example 32]
2. Cc1nnn(C)c1-c1cnc2c3ccc(N4CCS(=O)(=O)CC(C)C4)nc3n([C@H](c3ccccc3)C3CCOCC3)c2c1 (stereo partly shown) [Example 211]
3. [2H]C([2H])([2H])c1nnn(C)c1-c1cnc2c3c(OC)nccc3n([C@H](c3ccccc3)C3CCOCC3)c2c1 [Example 128]

> 8.00
> 8.00
> 8.00

Ref: patent US9725449B2
